Target: PP5C (Homo sapiens)
Sequence (P53041 whole entry): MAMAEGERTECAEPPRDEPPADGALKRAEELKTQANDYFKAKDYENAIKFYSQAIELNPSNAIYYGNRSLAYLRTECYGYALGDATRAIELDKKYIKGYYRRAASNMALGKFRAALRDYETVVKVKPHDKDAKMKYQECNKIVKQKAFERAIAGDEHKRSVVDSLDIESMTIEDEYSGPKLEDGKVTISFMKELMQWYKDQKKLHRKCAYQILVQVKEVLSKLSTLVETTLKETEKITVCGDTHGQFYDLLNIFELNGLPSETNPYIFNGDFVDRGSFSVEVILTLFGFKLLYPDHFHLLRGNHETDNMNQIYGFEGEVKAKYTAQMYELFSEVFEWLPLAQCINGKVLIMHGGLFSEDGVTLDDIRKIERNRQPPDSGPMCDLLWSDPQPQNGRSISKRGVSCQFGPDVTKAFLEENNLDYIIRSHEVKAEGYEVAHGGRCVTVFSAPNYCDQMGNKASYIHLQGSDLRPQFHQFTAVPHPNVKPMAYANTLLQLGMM
measuredQuantity: pIC50
In plain terms, pIC50 is the concentration in mol/L turned into minus its base-10 logarithm.

Would you please give the reported pIC50 of C[C@@]12C(=O)OC(=O)[C@]1(C)[C@H]1CC[C@@H]2O1 with PP5C (Homo sapiens)? 6.28

* * *

measuredQuantity: IC50 (µM)
Value expressed in µM; do not type the unit.

Would you please give the reported IC50 of COc1ccc(NC(=O)C2C3CCC(O3)C2C(=O)O)c(OC)c1 (stereo not shown) [SID 93617938] with UniProt:P62136? 18.9
